These data points were gathered from ChEMBL document CHEMBL4145540.

Recorded pIC50 for the following molecules
# System: HEK293
# MEASUREMENT DESCRIPTION: Antiproliferative activity against HEK293 cells after 2 days by MTT assay
# Assay type: cell-based
# MEASUREMENT CONDITIONS: Homo sapiens, HEK293, 48 h
Bear in mind: pIC50 is minus log10 of a mol/L concentration; give just that figure.

• COc1cccc(OC(=O)Nc2cc(/C=C\c3cc(OC)c(OC)c(OC)c3)ccc2OC)c1 = 8.09
• COc1ccc(/C=C\c2cc(OC)c(OC)c(OC)c2)cc1NC(=O)Oc1ccc(Cl)c(C)c1 = 8.08
• COc1ccc(OC(=O)Nc2cc(/C=C\c3cc(OC)c(OC)c(OC)c3)ccc2OC)cc1 = 6.89
• COc1ccc(/C=C\c2cc(OC)c(OC)c(OC)c2)cc1NC(=O)Oc1ccccc1C(F)(F)F = 8.39
• COc1ccc(/C=C\c2cc(OC)c(OC)c(OC)c2)cc1NC(=O)Oc1ccc(Cl)cc1 = 6.85

Measured pIC50 of `COc1ccc(/C=C\c2cc(OC)c(OC)c(OC)c2)cc1NC(=O)Oc1cccc(Br)c1` : 7.80

Measured pIC50 of `COc1ccc(/C=C\c2cc(OC)c(OC)c(OC)c2)cc1NC(=O)Oc1ccc(C(F)(F)F)cc1` : 7.24

Measured pIC50 of `COc1ccc(/C=C\c2cc(OC)c(OC)c(OC)c2)cc1NC(=O)Oc1c(C)cccc1C` : 6.31

Measured pIC50 of `COc1ccc(/C=C\c2cc(OC)c(OC)c(OC)c2)cc1NC(=O)Oc1cccc(C)c1` : 7.40

Measured pIC50 of `COc1ccc(/C=C\c2cc(OC)c(OC)c(OC)c2)cc1NC(=O)Oc1cccc(F)c1` : 7.88

Measured pIC50 of `COc1ccc(/C=C\c2cc(OC)c(OC)c(OC)c2)cc1NC(=O)Oc1cccc(C(F)(F)F)c1` : 7.37

Measured pIC50 of `COc1ccc(/C=C\c2cc(OC)c(OC)c(OC)c2)cc1NC(=O)Oc1ccc(F)cc1` : 6.73

Measured pIC50 of `COc1ccc(/C=C\c2cc(OC)c(OC)c(OC)c2)cc1NC(=O)Oc1ccc(C)cc1` : 6.84

Measured pIC50 of `COc1ccc(/C=C\c2cc(OC)c(OC)c(OC)c2)cc1NC(=O)Oc1ccccc1F` : 7.19

Measured pIC50 of `COc1ccc(/C=C\c2cc(OC)c(OC)c(OC)c2)cc1NC(=O)Oc1ccccc1C` : 7.22

---

# System: HeLa
# MEASUREMENT DESCRIPTION: Antiproliferative activity against human HeLa cells after 2 days by MTT assay
# Assay type: functional, cell-based
# MEASUREMENT CONDITIONS: 48 h
Recorded log10(IC50) for the following molecules
Kindly note that the scale is log10 and the underlying IC50 is in nM.

• COc1ccc(/C=C\c2cc(OC)c(OC)c(OC)c2)cc1NC(=O)Oc1cc(C)cc(C)c1 = 2.11
• COc1ccc(/C=C\c2cc(OC)c(OC)c(OC)c2)cc1NC(=O)Oc1ccccc1F = 1.23
• COc1ccc(/C=C\c2cc(OC)c(OC)c(OC)c2)cc1NC(=O)Oc1ccccc1C = 1.70
• COc1ccc(/C=C\c2cc(OC)c(OC)c(OC)c2)cc1O [COMBRETASTATIN A4] = 3.32
• COc1ccc(/C=C\c2cc(OC)c(OC)c(OC)c2)cc1NC(=O)Oc1ccccc1Br = 0.41

Measured log10(IC50) of `COc1ccc(/C=C\c2cc(OC)c(OC)c(OC)c2)cc1NC(=O)Oc1ccc(C(F)(F)F)cc1` : 1.32
